B1: SMOC2 (parent)
chain: DCAGSPQKPLCASDGRTFLSRCEF

- Variants of: B1
- Assay overview: protein stability index of a GFP-peptide fusion (GPS, HEK-293T) (PSI 1-6); higher = more stable;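 note: lentivirally expressed fusions sorted by FACS into six bins by GFP to DsRed ratio, PSI derived from sequencing read proportions per bin multiplied by bin number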
- Condition: c terminus: a fixed tail appended
Note to self: values exactly at 3 are Met. So protein stability index at or above 3 is Met, below is Not met.

Answered cases to consult:
>>> assigned_category("G15A")
"Met"
>>> assigned_category("D14Q")
"Not met"
>>> assigned_category("Q7G")
"Not met"
>>> assigned_category("T17E")
"Met"
>>> assigned_category("L19E")
"Met"
>>> assigned_category("K8V")
"Not met"
>>> assigned_category("L19Q")
"Not met"
>>> assigned_category("R21W")
"Not met"
>>> assigned_category("P9M")
"Not met"
>>> assigned_category("C11Q")
"Not met"

Q: Could you verify whether the entry `Q7W` shows protein stability index of no less than 3?
A: Not met

Q: Could you verify whether the entry `R16N` shows protein stability index of no less than 3?
A: Met

Q: Could you verify whether the entry `G4Q` shows protein stability index of no less than 3?
A: Not met

Q: Could you verify whether the entry `D1P` shows protein stability index of no less than 3?
A: Not met

Q: Could you verify whether the entry `S13K` shows protein stability index of no less than 3?
A: Not met

Q: Could you verify whether the entry `K8W` shows protein stability index of no less than 3?
A: Not met

Q: Could you verify whether the entry `F18I` shows protein stability index of no less than 3?
A: Met

Q: Could you verify whether the entry `R21C` shows protein stability index of no less than 3?
A: Not met

Q: Could you verify whether the entry `E23I` shows protein stability index of no less than 3?
A: Not met

Q: Could you verify whether the entry `P6I` shows protein stability index of no less than 3?
A: Not met

Q: Could you verify whether the entry `S20H` shows protein stability index of no less than 3?
A: Not met

Q: Could you verify whether the entry `R21N` shows protein stability index of no less than 3?
A: Met

Q: Could you verify whether the entry `C11L` shows protein stability index of no less than 3?
A: Met

Q: Could you verify whether the entry `T17N` shows protein stability index of no less than 3?
A: Met
